The compounds listed here are annotated with their cell viability.
- Tested on: NOMO1
- ASSAY TEXT: cell viability relative to DMSO control; higher = less cytotoxic
- PARTICULARS: RPMI 5 mM glucose + 10% FBS; 48 h; 0.0211 µM

[
  {
    "COMPOUND": "CNCCCC12CCC(c3ccccc31)c1ccccc12",
    "cell viability [%]": 97.2
  },
  {
    "COMPOUND": "CCC[S+]([O-])c1ccc2[nH]c(NC(=O)OC)nc2c1 (centres undefined)",
    "cell viability [%]": 103
  },
  {
    "COMPOUND": "CN(C)C1CCN(C(=O)c2ccc(NC(=O)Nc3nc(N4CCOCC4)nc(N4CCOCC4)n3)cc2)CC1",
    "cell viability [%]": 84.5
  },
  {
    "COMPOUND": "CN(C)[S+](=O)([O-])c1ccc2c(c1)C(=Cc1cc3c([nH]1)CCCC3)C(=O)N2",
    "cell viability [%]": 115
  },
  {
    "COMPOUND": "CC1=C(C)C(=O)C(C(CCCCCC(=O)O)c2ccccc2)=C(C)C1=O (centres undefined)",
    "cell viability [%]": 74.7
  },
  {
    "COMPOUND": "O=C1NC(=O)/C(=C/c2ccc3nccc(-c4ccncc4)c3c2)S1",
    "cell viability [%]": 113
  },
  {
    "COMPOUND": "Cc1nn(Cc2ccccc2Cl)c(C)c1CN(C)CC(O)COc1ccc(Cl)cc1 (centres undefined)",
    "cell viability [%]": 90.4
  },
  {
    "COMPOUND": "COc1cc(OC2CCN(C)CC2)ccc1Nc1ncc2c(n1)n(C1CCCC1)c(=O)n2C",
    "cell viability [%]": 84.8
  },
  {
    "COMPOUND": "CC(C)(O)CC[C@@H](O)[C@](C)(O)[C@H]1CC[C@@]2(O)C/3=C/C(=O)[C@@H]4C[C@@H](O)[C@@H](O)C[C@]4(C)[C@H]3CC[C@]12C",
    "cell viability [%]": 83.8
  }
]

###

- Tested on: NOMO1
- ASSAY TEXT: cell viability relative to DMSO control; higher = less cytotoxic
- PARTICULARS: RPMI 5 mM glucose + 10% FBS; 48 h; 15.4 µM

[
  {
    "COMPOUND": "Cc1onc(-c2ccccc2Cl)c1C(=O)N[C@@H]1C(=O)N2[C@@H]1SC(C)(C)[C@@H]2C(=O)[O-]",
    "cell viability": "97.9%"
  },
  {
    "COMPOUND": "CC(C)c1noc(N2CCC(COc3ccc(-c4ccc([S+](C)(=O)[O-])cc4)nc3)CC2)n1",
    "cell viability": "110%"
  },
  {
    "COMPOUND": "O=c1[nH]c(=O)n([C@H]2C[C@H](O)[C@@H](CO)O2)cc1/C=C/Br",
    "cell viability": "120%"
  },
  {
    "COMPOUND": "CNCCCC12CCC(c3ccccc31)c1ccccc12",
    "cell viability": "80.9%"
  },
  {
    "COMPOUND": "C[C@]12COC(=O)C[C@@H]1CC[C@@H]1[C@@H]2CC[C@@]2(C)[C@H]1CC[C@]2(C)O",
    "cell viability": "81.2%"
  },
  {
    "COMPOUND": "CCC[S+]([O-])c1ccc2[nH]c(NC(=O)OC)nc2c1 (centres undefined)",
    "cell viability": "71.2%"
  },
  {
    "COMPOUND": "c1ccc(CCCN2CCN(CCOC(c3ccccc3)c3ccccc3)CC2)cc1",
    "cell viability": "78%"
  },
  {
    "COMPOUND": "C[C@](O)(CS(=O)(=O)c1ccc(F)cc1)C(=O)Nc1ccc(C#N)c(C(F)(F)F)c1",
    "cell viability": "133%"
  },
  {
    "COMPOUND": "C[C@H](NC(=O)c1sccc1OCc1ccc(Cl)cc1)c1ccccc1",
    "cell viability": "81.1%"
  }
]
